The values you see were collected from patent US20240344030A1.

For each of the binders below, state its CD3 Binding (increase in MFI).
STUDY_SYSTEM: T1, CD3 on (CD3+) T cells (human, UniProt P07766 23-207; P09693 23-182; P04234 22-171; P20963 22-164)
T1 construct: whole, on cells; also called CD3 protein multi-subunit complex
T1 sequence (P07766 23-207, form in doubt, chain 1 of 4): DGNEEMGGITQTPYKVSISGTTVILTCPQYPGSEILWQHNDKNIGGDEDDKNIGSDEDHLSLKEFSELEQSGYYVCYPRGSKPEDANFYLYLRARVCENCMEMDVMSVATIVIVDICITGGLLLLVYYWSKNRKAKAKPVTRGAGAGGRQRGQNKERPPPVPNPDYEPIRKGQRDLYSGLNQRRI
T1 sequence (P09693 23-182, form in doubt, chain 2 of 4): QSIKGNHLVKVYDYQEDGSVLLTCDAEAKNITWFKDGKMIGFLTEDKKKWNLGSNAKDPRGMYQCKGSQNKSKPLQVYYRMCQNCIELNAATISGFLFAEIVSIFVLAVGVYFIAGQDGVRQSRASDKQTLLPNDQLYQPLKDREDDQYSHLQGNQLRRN
T1 sequence (P04234 22-171, form in doubt, chain 3 of 4): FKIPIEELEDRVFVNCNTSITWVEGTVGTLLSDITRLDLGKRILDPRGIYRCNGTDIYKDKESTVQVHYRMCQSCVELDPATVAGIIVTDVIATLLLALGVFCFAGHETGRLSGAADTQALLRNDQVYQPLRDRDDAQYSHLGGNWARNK
T1 sequence (P20963 22-164, form in doubt, chain 4 of 4): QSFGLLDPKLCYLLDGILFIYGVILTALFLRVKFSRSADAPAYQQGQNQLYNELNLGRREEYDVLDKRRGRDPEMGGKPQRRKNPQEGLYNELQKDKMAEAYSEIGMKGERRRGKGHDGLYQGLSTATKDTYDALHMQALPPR
EXPERIMENT_SUMMARY: flow cytometry; 10 µg/mL scFv on 50,000 CD3+ T cells; anti-FLAG FITC detection
API: value field is a number in MFI; no unit string.

The binder Vulcanodon-1 anti-CD3 scFv (SEQ ID NO: 2), FLAG and His-tagged version (scFv, also called Var 1; not shown: FLAG and His tags) scFv: QVQLVQSGAEVKKPGASVKVSCKASGYTFTRYTMHWVRQAPGQGLEWIGYINPSKGYTNYNQKFKGRVTMTADKSTSTAYMELSSLRSEDTAVYYCARYYDDHYSLDYWGQGTLVTVSSGGGGSGGGGSGGGGSGGGGSEIVMTQSPATLSLSPGERVTLSCRASSSVSYMNWYQQKSGTSPKRWIYDTSKVASGVPYRFSGSGSGTDFTLTISSLQAEDEATYYCQQWSSNPLTFGQGTKLEIK showed CD3 Binding (increase in MFI) equal to 20

The binder Vulcanodon-2 anti-CD3 scFv (SEQ ID NO: 3), FLAG and His-tagged version (scFv, also called Var 2; not shown: FLAG and His tags) scFv: QVQLVQSGAEVKKPGASVKVSCKASGYTFTRYTMHWVRQAPGQGLEWIGYINPSRGYTNYNQKFKGRVTMTADKSTSTAYMELSSLRSEDTAVYYCARYYDDHYSLDYWGQGTTVTVSSGGGGSGGGGSGGGGSGGGGSEIVMTQSPATLSLSPGERVTLSCRASSSVSYMNWYQQKSGTSPKRWIYDTSKVASGVPYRFSGSGSGTDFTLTISSLQAEDEATYYCQQWSSNPLTFGAGTKLEIK showed CD3 Binding (increase in MFI) equal to 24

The binder Vulcanodon-4 anti-CD3 scFv (SEQ ID NO: 5), FLAG and His-tagged version (scFv, also called Var 4; not shown: FLAG and His tags) scFv: QVQLVQSGAEVKKPGASVKVSCKASGYTFTRYTMHWVKQRPGQGLEWIGYINPSKGYTNYNQKFKGRVTMTADKSTSTAYMELSSLRSEDTAVYYCARYYDDHYSLDYWGQGTLVTVSSGGGGSGGGGSGGGGSGGGGSQIVLTQSPAIMSASPGEKVTMTCRASSSVSYMNWYQQKSGTSPKRWIYDTSKVASGVPYRFSGSGSGTDFTLTISSLQAEDEATYYCQQWSSNPLTFGQGTKLEIK showed CD3 Binding (increase in MFI) equal to 27
